Measured values drawn from paper PMC6269778 for this set.

- experiment summary: NO scavenging activity (sodium nitroprusside / Griess reagent)
- stated conditions: NO scavenging
Quick reference: IC50 (nitric oxide scavenging) of the listed items.
value type: IC50 (nitric oxide scavenging) (µg/mL)

compound: Cc1ccc(-c2ccc3nc(N)sc3c2)cc1 [Compound 3a, 6-p-Tolylbenzo[d]thiazole-2-amine]
quantitative readout: 38.19
--
compound: COc1ccc(-c2ccc3nc(N)sc3c2)cc1 [Compound 3c]
quantitative readout: 38.19
--
compound: Nc1nc2ccc(-c3ccccc3)cc2s1 [Compound 3e, 6-Phenylbenzo[d]thiazole-2-amine]
quantitative readout: 96.66
--
compound: Nc1nc2ccc(-c3ccc(Cl)cc3)cc2s1 [Compound 3b]
quantitative readout: 75
--
compound: Nc1nc2ccc(Br)cc2s1 [Compound 2, 6-Bromobenzo[d]thiazole-2-amine]
quantitative readout: 57.8
--
compound: Nc1nc2ccc(-c3cc(C(F)(F)F)cc(C(F)(F)F)c3)cc2s1 [Compound 3d]
quantitative readout: 83.75
